assayedTarget: T1, P-cadherin-ECD1-3-Fc protein (human P-cadherin-Fc) (human, UniProt P22223 108-440)
T1 construct: Construct was expressed with signal peptide and pro-peptide (PACE co-transfected to process the propeptide); not shown: hinge and CH2 and CH3 domains of human IgG1
T1 sequence (P22223 108-440): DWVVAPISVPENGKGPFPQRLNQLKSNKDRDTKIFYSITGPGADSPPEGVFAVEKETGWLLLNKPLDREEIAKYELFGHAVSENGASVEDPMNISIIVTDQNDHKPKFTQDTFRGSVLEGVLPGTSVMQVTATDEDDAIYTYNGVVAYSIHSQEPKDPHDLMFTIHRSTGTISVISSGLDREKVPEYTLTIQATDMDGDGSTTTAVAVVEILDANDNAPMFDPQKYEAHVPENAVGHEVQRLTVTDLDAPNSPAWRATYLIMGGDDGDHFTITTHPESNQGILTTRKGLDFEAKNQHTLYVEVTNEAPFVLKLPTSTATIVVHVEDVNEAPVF
assayRemarks: phage scFv ELISA, coated P-cadherin-ECD1-3-Fc
Method: P-cadherin-ECD1-3-Fc protein or negative control protein was coated overnight at 4° C. on 96-well Nunc Maxisorp® plates (Thermo Fisher Scientific, Madison, Conn.) at a concentration of 2 μg/mL in PBS+Ca²⁺ and Mg²⁺. […] Signal was developed using TMB (SurModics, Eden Prairie, Minn.), the reaction stopped with H₂SO₄ and the absorbance read at 450 nm on an EnVision® plate reader (Perkin Elmer, Waltham, Mass.).
Below, each entry is listed with its recorded Human P-cadherin-Fc binding (OD450).

binder	Human P-cadherin-Fc binding (OD450)
anti-P-cadherin scFv 153 alanine-mutant H2.2-Ala (scFv, V domains shown, scFv on phage) VH: EVQLVQSGAEVKKPGASVKVSCKASGYTFTSYGISWVRQAPGQGLEWMGWASAYNGNTNYAQKLQGRVTMTTDTSTSTAYMELRSLRSDDTAVYYCATIDTANAFGIWGQGTMVTVSS VL: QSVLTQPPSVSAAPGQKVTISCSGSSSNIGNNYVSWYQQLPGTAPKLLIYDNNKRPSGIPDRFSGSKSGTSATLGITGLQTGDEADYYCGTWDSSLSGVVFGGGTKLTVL	2.2
anti-P-cadherin scFv 153 alanine-mutant H2.17-Ala (scFv, V domains shown, scFv on phage) VH: EVQLVQSGAEVKKPGASVKVSCKASGYTFTSYGISWVRQAPGQGLEWMGWISAYNGNTNYAQKLQARVTMTTDTSTSTAYMELRSLRSDDTAVYYCATIDTANAFGIWGQGTMVTVSS VL: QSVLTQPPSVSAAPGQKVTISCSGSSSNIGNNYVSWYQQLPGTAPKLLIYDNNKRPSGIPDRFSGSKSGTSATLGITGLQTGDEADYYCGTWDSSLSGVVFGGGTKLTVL	2.14
anti-P-cadherin scFv 153 alanine-mutant H2.10-Ala (scFv, V domains shown, scFv on phage) VH: EVQLVQSGAEVKKPGASVKVSCKASGYTFTSYGISWVRQAPGQGLEWMGWISAYNGNTAYAQKLQGRVTMTTDTSTSTAYMELRSLRSDDTAVYYCATIDTANAFGIWGQGTMVTVSS VL: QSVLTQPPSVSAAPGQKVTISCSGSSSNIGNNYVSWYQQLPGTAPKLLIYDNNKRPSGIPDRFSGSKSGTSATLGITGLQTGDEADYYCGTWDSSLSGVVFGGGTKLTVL	2.27

Sourced from patent US20160002357A1
